Target: KRAS (WT) (Homo sapiens, UniProt P01116)
Construct: Biotinylated KRAS protein amino acids 1-169 (produced at Erasca); made in house
Sequence (P01116 1-169 isoform P01116-2): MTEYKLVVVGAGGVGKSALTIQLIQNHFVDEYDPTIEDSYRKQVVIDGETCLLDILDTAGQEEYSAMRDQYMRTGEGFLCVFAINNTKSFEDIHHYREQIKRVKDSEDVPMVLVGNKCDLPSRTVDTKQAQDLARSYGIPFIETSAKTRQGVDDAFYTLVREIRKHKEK
Assay: In-vitro RAS-RAF binding assay (RRB), HTRF/FRET
Format: biochemical
Conditions: Table 2, average of multiple runs of each compound; read-out: Inhibition of RAS-RAF Binding (in-vitro) KRAS (WT) IC50
Criterion: IC50 strictly under 900 nM. Met: MET. Not met: NOT MET.

Prompt line: Could you please tell me whether IC50 recorded for C#Cc1c(F)ccc2cc(O)cc(-c3ncc4c(N5CC6CCC(C5)N6)nc(OCCN5CCC6(CC5)CN(c5cc([C@H](C(=O)N7C[C@H](O)C[C@H]7C(=O)N[C@@H](C)c7ccc(-c8c(F)cccc8F)cc7)C(C)C)on5)C6)nc4c3F)c12 is less than 900 nM?
Response line: NOT MET

Prompt line: For C#Cc1c(F)ccc2cc(O)cc(-c3ncc4c(N5CC6CCC(C5)N6)nc(OCCN5CCC6(CC5)CN(c5cc([C@H](C(=O)N7C[C@H](O)C[C@H]7C(=O)N[C@@H](C)c7ccc(-c8c(F)cc(F)cc8F)cc7)C(C)C)on5)C6)nc4c3F)c12 , is the recorded IC50 below the cut-off of 900 nM?
Response line: NOT MET

Prompt line: API: query returns whether the compound falls strictly under 900 nM in IC50. Query: C#Cc1c(F)ccc2cc(O)cc(-c3ncc4c(N5CC6CCC(C5)N6)nc(OCCN5CCC6(C5)CN(c5cc([C@H](C(=O)N7C[C@H](O)C[C@H]7C(=O)N[C@@H](C)c7ccc(-c8c(F)cccc8F)cc7)C(C)C)on5)C6)nc4c3F)c12
Response line: NOT MET

Prompt line: Regarding C[C@H](NC(=O)[C@@H]1C[C@@H](O)CN1C(=O)[C@@H](NC(=O)CCOCCCN1CCCC1COc1nc(N2CC3CCC(C2)N3)c2cc(Cl)c(-c3ccc(F)c4sc(N)c(C#N)c34)c(F)c2n1)C(C)(C)C)c1ccc(-c2c(F)cccc2F)cc1 (some centres unmarked) [Example 12] , kindly confirm whether its IC50 is beneath 900 nM.
Response line: MET

Prompt line: Input CC(C)[C@@H](C(=O)N1C[C@H](O)C[C@H]1C(=O)N[C@@H](C)c1ccc(-c2c(F)cc(F)cc2F)cc1)c1cc(OCC2(F)CCN(CCOc3nc(N4CC5CCC(C4)N5)c4cc(Cl)c(-c5ccc(F)c6sc(N)c(C#N)c56)c(F)c4n3)CC2)no1 ; condition: IC50 strictly below 900 nM. Does it hold?
Response line: NOT MET

Prompt line: In plain terms, does Cc1ncsc1-c1ccc([C@H](C)NC(=O)[C@@H]2C[C@@H](O)CN2C(=O)[C@@H](NC(=O)CCCCN2CCC[C@H]2COc2nc(N3CC4CCC(C3)N4)c3cnc(-c4cc(O)cc5cccc(F)c45)c(F)c3n2)C(C)(C)C)cc1 come in under 900 nM for IC50?
Response line: MET

Prompt line: In plain terms, does C#Cc1c(F)ccc2cc(O)cc(-c3ncc4c(N5CC6CCC(C5)N6)nc(OCCN5CCC(Oc6cc([C@H](C(=O)N7C[C@H](O)C[C@H]7C(=O)N[C@@H](C)c7ccc(-c8c(F)cccc8F)cc7)C(C)C)on6)CC5)nc4c3F)c12 come in under 900 nM for IC50?
Response line: NOT MET

Prompt line: Strictly below 900 nM: is that where IC50 of Cc1ncsc1-c1ccc([C@H](C)NC(=O)[C@@H]2C[C@@H](O)CN2C(=O)[C@@H](NC(=O)CCOCCCN2CCCC2COc2nc(N3CC4CCC(C3)N4)c3cc(Cl)c(-c4ccc(F)c5sc(N)c(C#N)c45)c(F)c3n2)C(C)(C)C)cc1 (some centres unmarked) sits?
Response line: MET
